Cited source: patent US20260317324A1

- TARGET DESC: BRAF V600E (Homo sapiens, UniProt P15056, V600E)
- Construct: endogenous C-terminal HiBiT fusion tag on BRAF V600E allele; endogenous in cells; host or cells: A375 clone 1F10 (CRISPR-Cas9 knock-in of the HiBiT tag; parental A375 from ATCC)
- Sequence (P15056 whole entry V600E, the tested form may be a part): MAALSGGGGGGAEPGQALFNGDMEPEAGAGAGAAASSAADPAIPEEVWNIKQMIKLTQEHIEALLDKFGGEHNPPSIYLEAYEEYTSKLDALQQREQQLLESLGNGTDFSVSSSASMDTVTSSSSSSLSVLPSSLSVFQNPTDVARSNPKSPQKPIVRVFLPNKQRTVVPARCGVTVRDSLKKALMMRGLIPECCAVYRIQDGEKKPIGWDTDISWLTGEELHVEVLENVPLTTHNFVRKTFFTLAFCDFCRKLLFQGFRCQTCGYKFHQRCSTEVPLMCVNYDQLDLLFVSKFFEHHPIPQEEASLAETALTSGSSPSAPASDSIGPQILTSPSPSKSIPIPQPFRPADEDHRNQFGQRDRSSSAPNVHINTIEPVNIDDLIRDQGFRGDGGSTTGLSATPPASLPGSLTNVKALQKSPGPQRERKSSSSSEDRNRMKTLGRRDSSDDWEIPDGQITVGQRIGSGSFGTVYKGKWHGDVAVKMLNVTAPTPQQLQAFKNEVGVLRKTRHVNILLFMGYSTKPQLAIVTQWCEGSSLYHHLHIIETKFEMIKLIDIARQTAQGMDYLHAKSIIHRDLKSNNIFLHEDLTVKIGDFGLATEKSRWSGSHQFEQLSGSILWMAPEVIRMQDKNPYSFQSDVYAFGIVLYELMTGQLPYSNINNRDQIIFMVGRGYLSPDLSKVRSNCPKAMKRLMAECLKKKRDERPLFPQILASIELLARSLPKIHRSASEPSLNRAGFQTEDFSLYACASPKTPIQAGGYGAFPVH
- TEST PROTOCOL: BRAF HiBiT degradation assay, C-terminal HiBiT-tagged BRAF V600E A375 cells (clone 1F10), Nano-Glo HiBiT Lytic assay
- Type: cell-based
- APPLIED CONDITIONS: A375 (BRAF V600E); DC50 at 50%: fitted conc. at Y=50
DC50 values for the compounds below.

CCCS(=O)(=O)Nc1cccc(-c2nc(C(C)(C)C)sc2-c2ccnc(NCC(C)(C)C3CCN(CC4CCN(c5ccc([C@H]6CCC(=O)NC6=O)cc5)CC4)CC3)n2)c1F [Compound 144] :: 50 to 500 nM
CCCS(=O)(=O)Nc1cccc(-c2nc(C(C)(C)C)sc2-c2ccnc(Nc3ccc(C4CCN(C(=O)C5CCN(c6ccc7c(c6)C(=O)N(C6CCC(=O)NC6=O)C7=O)CC5)CC4)cc3)n2)c1F (racemic) [Compound 155] :: 50 to 500 nM
CCCS(=O)(=O)Nc1cccc(-c2nc(C)sc2-c2ccnc(Nc3ccc(N4CCN(CC5CCN(c6ccc([C@@H]7CCC(=O)NC7=O)cc6)CC5)CC4)cn3)n2)c1F [Compound 61] :: < 10 nM
CCCS(=O)(=O)Nc1cccc(-c2cn(-c3ccc(C4CCN(CC5CCN(c6ccc(C7CCC(=O)NC7=O)c(F)c6)CC5)CC4)cc3)nc2-c2ccncc2)c1F (racemic) [Compound 23] :: 10 to 50 nM
CCCS(=O)(=O)Nc1cccc(-c2nc(C(C)(C)C)sc2-c2ccnc(Nc3cnn(CC4CCN(CC5CCN(c6ccc(C(=O)N[C@@H]7CCC(=O)NC7=O)nc6)CC5)CC4)c3)n2)c1F [Compound 66] :: < 10 nM
CCCS(=O)(=O)Nc1cccc(-c2nc(C(C)(C)C)sc2-c2ccnc(Nc3cnn(C4CCN(CC[C@@H]5CCN(c6ccc(C7CCC(=O)NC7=O)cn6)C5)CC4)c3)n2)c1F (mixture of isomers) [Compound 78] :: 10 to 50 nM
CCCS(=O)(=O)Nc1cccc(-c2nc(C3CCN(C(=O)C4CN(C5CCN(c6ccc7c(c6)C(=O)N(C6CCC(=O)NC6=O)C7=O)CC5)C4)CC3)sc2-c2ccnc(N)n2)c1F (racemic) [Compound 242] :: < 10 nM
CCCS(=O)(=O)Nc1cccc(-c2nc(C(C)(C)C)sc2-c2ccnc(Nc3cnn(C4CCN(CC5CCN(c6ccc(C(=O)N[C@@H]7CCC(=O)NC7=O)nc6)CC5)CC4)c3)n2)c1F [Compound 67] :: < 10 nM
CCCS(=O)(=O)Nc1cccc(-c2nc(C(C)(C)C)sc2-c2ccnc(Nc3ccc(C4CCN(CC[C@H]5CCN(c6ccc(C7CCC(=O)NC7=O)cn6)C5)CC4)cc3)n2)c1F (mixture of isomers) [Compound 173] :: 10 to 50 nM

From here, focus on the item given below.
Notebook: CCCS(=O)(=O)Nc1cccc(-c2nc(C3CCN(C(=O)[C@H]4CC[C@H](CN5CCc6cc(C7CCC(=O)NC7=O)ccc6C5)CC4)CC3)sc2-c2ccnc(N)n2)c1F (mixture of isomers) [Compound 222] , DC50 read as > 500 nM
